In this section we review reported MIC values for a set of compounds.
- Tested on: Staphylococcus aureus 209P JC-1
- Assay details: Antibacterial activity test (agar dilution MIC)
- Assay type: cell-based
- Measurement conditions: test bacterium A = Staphylococcus aureus 209P JC-1; blood agar medium, 37° C., about 20 hours; read-out: Minimum inhibitory concentration (MIC)
Note: unit µg/mL is implicit; provide only the numeric part.

Examples with answers:
CCCC(=O)O[C@H]1C(C)O[C@@H](O[C@@H]2C(C)O[C@@H](O[C@H]3[C@@H](CC=O)C[C@@H](C)[C@@H](O)CN(C)CCC[C@H](C/C=C/c4cnc5ccccc5c4)OC(=O)C[C@@H](O)[C@@H]3OC)C(O)C2N(C)C)CC1(C)OC(=O)CC (some centres unmarked) [Example 128] :: 0.5
CCC(=O)O[C@@H]1CC(=O)O[C@@H](C/C=C/c2cccc(-c3cccnc3)c2)CCCN(C)C[C@H](O)[C@H](C)C[C@H](CC=O)[C@H](O[C@@H]2OC(C)[C@@H](O[C@H]3CC(C)(OC(C)=O)[C@@H](OC(=O)CC)C(C)O3)C(N(C)C)C2O)[C@H]1OC (some centres unmarked) [Example 108] :: 0.5
CCC(=O)OC1C(C)O[C@@H](O[C@@H]2C(C)O[C@@H](O[C@H]3[C@@H](CC=O)C[C@@H](C)[C@@H](O)CN(C)CCC(CCCc4cnc5ccccc5c4)NC(=O)C[C@@H](OC(=O)CC)[C@@H]3OC)C(O)C2N(C)C)CC1(C)O (some centres unmarked) [Example 35] :: 1
CCC(=O)O[C@@H]1CC(=O)O[C@@H](C/C=C/c2cnc3ccccc3c2)CCCN(C)C[C@H](O)[C@H](C)C[C@H](CC=O)[C@H](O[C@@H]2OC(C)[C@@H](O[C@H]3CC(C)(O)[C@@H](OC(=O)CC)C(C)O3)C(N(C)C)C2O)[C@H]1OC (some centres unmarked) [Example 53] :: 0.5
CCC(=O)O[C@@H]1CC(=O)OCCC(/C=C/Cc2ccnc3ccccc23)CN(C)C[C@H](O)[C@H](C)C[C@H](CC=O)[C@H](O[C@@H]2OC(C)[C@@H](O)C(N(C)C)C2O)[C@H]1OC (some centres unmarked) [Example 55] :: 0.5

Q: Look up and report measured MIC (Staphylococcus aureus 209P JC-1) for the following compound: CCC(=O)O[C@@H]1CC(=O)O[C@@H](C/C=C/c2ccc3ccccc3c2)CCCN(C)C[C@H](O)[C@H](C)C[C@H](CC=O)[C@H](O[C@@H]2OC(C)[C@@H](O[C@H]3CC(C)(OC(C)=O)[C@@H](OC(=O)CC)C(C)O3)C(N(C)C)C2O)[C@H]1OC (some centres unmarked) [Example 95]
Result: 1

Q: Look up and report measured MIC (Staphylococcus aureus 209P JC-1) for the following compound: CCC(=O)O[C@@H]1CC(=O)O[C@@H](C/C=C/c2cnc3ncccc3c2)CCCN(C)C[C@H](O)[C@H](C)C[C@H](CC=O)[C@H](O[C@@H]2OC(C)[C@@H](O[C@H]3CC(C)(OC(C)=O)[C@@H](OC(=O)CC)C(C)O3)C(N(C)C)C2O)[C@H]1OC (some centres unmarked) [Example 94]
Result: 0.5

Q: Look up and report measured MIC (Staphylococcus aureus 209P JC-1) for the following compound: CCC(=O)OC1C(C)O[C@@H](O[C@@H]2C(C)O[C@@H](O[C@H]3[C@@H](CC=O)C[C@@H](C)[C@@H](O)CN(C)CCC(/C=C/Cc4ccnc5ccccc45)NC(=O)C[C@@H](OC(=O)CC)[C@@H]3OC)C(O)C2N(C)C)CC1(C)O (some centres unmarked) [Example 28]
Result: 0.5
